pIC50: −log10 of the molar value.
# literature pull: ROCK2 (Homo sapiens) pIC50
# Sequence (O75116 whole entry, species assumed): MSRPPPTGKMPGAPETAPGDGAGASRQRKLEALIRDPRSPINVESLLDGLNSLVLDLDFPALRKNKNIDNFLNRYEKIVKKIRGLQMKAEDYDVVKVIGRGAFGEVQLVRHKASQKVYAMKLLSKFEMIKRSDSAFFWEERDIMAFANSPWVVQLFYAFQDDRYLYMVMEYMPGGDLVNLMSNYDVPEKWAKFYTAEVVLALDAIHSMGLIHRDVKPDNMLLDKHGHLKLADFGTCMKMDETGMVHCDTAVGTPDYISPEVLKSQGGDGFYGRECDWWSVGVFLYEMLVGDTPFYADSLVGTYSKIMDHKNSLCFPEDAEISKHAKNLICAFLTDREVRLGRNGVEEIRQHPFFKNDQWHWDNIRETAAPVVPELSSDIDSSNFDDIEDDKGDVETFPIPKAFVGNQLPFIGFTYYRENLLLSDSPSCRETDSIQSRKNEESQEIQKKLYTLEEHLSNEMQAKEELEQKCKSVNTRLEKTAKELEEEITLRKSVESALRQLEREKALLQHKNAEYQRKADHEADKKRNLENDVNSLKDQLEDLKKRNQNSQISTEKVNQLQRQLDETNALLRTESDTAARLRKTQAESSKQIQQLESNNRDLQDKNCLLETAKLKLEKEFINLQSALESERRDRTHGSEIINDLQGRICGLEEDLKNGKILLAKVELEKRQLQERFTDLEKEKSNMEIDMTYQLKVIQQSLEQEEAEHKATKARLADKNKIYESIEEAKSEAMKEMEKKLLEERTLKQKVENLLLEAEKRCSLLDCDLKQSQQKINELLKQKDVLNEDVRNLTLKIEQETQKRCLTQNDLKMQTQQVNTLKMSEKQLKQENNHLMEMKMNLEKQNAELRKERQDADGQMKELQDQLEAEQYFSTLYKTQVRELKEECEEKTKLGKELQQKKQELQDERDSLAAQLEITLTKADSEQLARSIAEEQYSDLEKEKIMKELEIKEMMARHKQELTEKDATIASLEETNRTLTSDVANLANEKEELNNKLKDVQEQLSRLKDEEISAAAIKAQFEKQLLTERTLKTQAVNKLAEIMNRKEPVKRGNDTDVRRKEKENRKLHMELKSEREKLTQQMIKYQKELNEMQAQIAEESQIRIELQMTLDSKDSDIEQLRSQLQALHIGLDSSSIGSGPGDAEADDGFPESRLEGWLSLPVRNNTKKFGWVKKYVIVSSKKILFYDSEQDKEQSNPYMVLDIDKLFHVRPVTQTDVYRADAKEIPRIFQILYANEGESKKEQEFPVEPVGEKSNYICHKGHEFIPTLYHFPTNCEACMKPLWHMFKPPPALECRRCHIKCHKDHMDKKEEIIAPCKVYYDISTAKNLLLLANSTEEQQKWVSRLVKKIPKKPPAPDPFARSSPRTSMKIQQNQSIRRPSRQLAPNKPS

# annotated cases, reported pIC50 shown
{"Molecule": "[H][C@]1(c2n[nH]c(=O)c3ccccc32)C[C@]2(C[C@@H](NC(=O)c3nnc4ccccn34)C2)C1 (stereo partly drawn)", "pIC50": "7.82 to 8.29"}
{"Molecule": "CCc1nc(N2CC3(CCN(C(=O)CO)CC3)N(Cc3cccc(F)c3C)C2=O)ccc1-c1cn[nH]c1", "pIC50": "> 8.52"}
{"Molecule": "COc1cccc(CN2CCN(c3ccc(-c4ccnc5[nH]ccc45)cc3)C2=O)c1", "pIC50": "7.70 to 8.68"}
{"Molecule": "COC(=O)c1cccc(CNC(=O)c2ccc(-c3cn[nH]c3)c(OC)c2)c1", "pIC50": 9.07}
{"Molecule": "CCc1nc(N2CCN(Cc3cccc(OC)c3)C2=O)ccc1-c1cn[nH]c1", "pIC50": "> 8.70"}
{"Molecule": "CCc1nc(N2CC3(CCN(C(=O)CC(C)C)CC3)N(Cc3cccc(OC)c3)C2=O)ccc1-c1cn[nH]c1", "pIC50": "> 8.52"}

Identify measured pIC50 associated with CC(C)CNC(=O)c1cccc(CN2C(=O)N(c3ccc(-c4cn[nH]c4)cc3)CC23CCOCC3)c1
> 8.52

Identify measured pIC50 associated with COc1nc(-n2ccn(Cc3ccc(F)cc3F)c2=O)ccc1-c1cn[nH]c1
6.70 to 7.70

Identify measured pIC50 associated with O=C(Cc1ccc(-c2n[nH]c(=O)c3ccccc23)cc1)N1Cc2ccc(F)cc2C1
7.52
